Experiment: qHTS assay to identify small molecule antagonists of the androgen receptor (AR) signaling pathway - cell viability counter screen (AID 743033; further: nearly all actives have a fitted effect of over 45% in size)
Settings: AR-bla HEK293 viability, CellTiter-Glo luminescence, 16 h; series mostly up to 58.5 µM
From the text: National Center for Advancing Translational Sciences [NCATS] NIH Chemical Genomics Center [NCGC] U.S. Environmental Protection Agency [EPA] National Institutes of Environmental Health Sciences [NIEHS] National Toxicology Program [NTP] U.S. Food and Drug Administration [FDA] Androgen receptor (AR), a nuclear hormone receptor, plays a critical role in AR-dependent prostate cancer and other androgen related diseases. […]
Inconclusive results are not listed. Calls of active or inactive are those of the source. The call rests on the fitted dose curve; in most records, active means well fitted cell-killing curve with a large enough effect in the repeat runs; inconclusive means weak or mixed curves; inactive means no such curve, though single readings can be large or run the other way.
One label from this list, please: T = active, F = inactive

Worked examples follow.
Cc1cccc(C)c1NC(=O)CN1CCN(CCCC(c2ccc(F)cc2)c2ccc(F)cc2)CC1	F
CC(C)c1cccc(C(C)C)c1N1C(=O)c2ccc(O)cc2C1=O	T
O=C1NCN(c2ccccc2)C12CCN(CCCC(c1ccc(F)cc1)c1ccc(F)cc1)CC2	F
CC(=O)Nc1ccc(O)cc1	F
C=CC(=O)OCCOCC(CC)(COCCOC(=O)C=C)COCCOC(=O)C=C	T
CC(C)(c1cc(Br)c(O)c(Br)c1)c1cc(Br)c(O)c(Br)c1	T
Cc1oc(-c2ccccc2)nc1CCOc1ccc(C[C@H](Nc2ccccc2C(=O)c2ccccc2)C(=O)O)cc1	F
CCCCCCCCCCCCCOP(=O)(O)O	F

Consider the additional compound presented here.
Hello, I am checking results. What call was entered for CC(=O)Oc1ccc(C2(c3ccc(OC(C)=O)cc3)C(=O)Nc3ccccc32)cc1 ?
F
